This collection of values is drawn from patent US8815857B2.

Protocol Notes: Assessment of solubility: HT solubility in pION buffer, UV spectrophotometry
Assay Setup: pION system solution buffer, pH 7.4, pH 7.4, aqueous buffer, kinetic from dmso stock, Solubility (pH 7.4), pH 7.4 buffer, 16-19 h incubation, 1.0% DMSO
Measured Property: solubility

Molecule: Cc1cc(CN2CCCCC2)ccc1COc1ccc(C#N)cc1-c1csc(N2CCC(C(=O)O)CC2)n1 [Compound 169]
Reported Value: > 0.057 mg/mL
//
Molecule: Cc1ccc(OCc2ccc(CN3CCOCC3)cc2C)c(-c2csc(N[C@H]3CC[C@@H](C(=O)O)CC3)n2)c1 [Compound 201]
Reported Value: > 0.053 mg/mL
//
Molecule: Cc1ccc(OCc2ccc(CN3CCOCC3)cc2C#N)c(-c2csc(N3CCC(C(=O)O)CC3)n2)c1 [Compound 167]
Reported Value: > 0.064 mg/mL
//
Molecule: Cc1cc(C(=O)N2CCCCC2)ccc1COc1c(C#N)cccc1-c1csc(N2CCC(C(=O)O)CC2)n1 [Compound 66]
Reported Value: > 0.054 mg/mL
